Tested on: Rattus norvegicus
Experiment: Biodistribution in liver of immature female rat after 5 hour administration of 3 micro Ci (111 kBq) in the absence of 60 microg estradiol
Type: ADME, organism-based
Conditions: in vivo
attribute_measured: ID/g (%)
Value expressed in %; do not type the unit.

Report ID/g for C[C@@H]1Cc2c(ccc(O)c2F)[C@H]2CC[C@@]3(C)[C@@H](CC[C@@]3(O)/C=C/I)[C@H]12 please.
3.6

Report ID/g for C[C@]12CC[C@@H]3c4ccc(O)c(F)c4CC[C@H]3[C@@H]1CC[C@@]2(O)/C=C\I please.
1.64

Report ID/g for CO[C@H]1C[C@@]2(C)[C@@H](CC[C@@]2(O)/C=C\I)[C@@H]2CCc3c(ccc(O)c3F)[C@H]21 please.
1.42

====

System: Rattus norvegicus
Test: Biodistribution in muscle of immature female rat after 1 hr administration of 3 micro Ci (111 kBq) in the presence of (+E2)
Format: ADME, organism-based, Muscle tissue
Conditions: in vivo
attribute_measured: ID/g (%)
Value expressed in %; do not type the unit.

Report ID/g for C[C@]12CC[C@@H]3c4ccc(O)c(F)c4CC[C@H]3[C@@H]1CC[C@@]2(O)/C=C\I please.
0.51

Report ID/g for C[C@]12CC[C@@H]3c4cc(F)c(O)cc4CC[C@H]3[C@@H]1CC[C@@]2(O)/C=C\I please.
2.16

Report ID/g for C[C@@H]1Cc2cc(O)c(F)cc2[C@H]2CC[C@@]3(C)[C@@H](CC[C@@]3(O)/C=C\I)[C@H]12 please.
0.29

Report ID/g for C[C@]12CC[C@@H]3c4ccc(O)c(F)c4CC[C@H]3[C@@H]1CC[C@@]2(O)/C=C/I please.
0.58

Report ID/g for C[C@@H]1Cc2c(ccc(O)c2F)[C@H]2CC[C@@]3(C)[C@@H](CC[C@@]3(O)/C=C\I)[C@H]12 please.
0.44

Report ID/g for CO[C@H]1C[C@@]2(C)[C@@H](CC[C@@]2(O)/C=C/I)[C@@H]2CCc3cc(O)c(F)cc3[C@H]21 please.
1.02

Report ID/g for C[C@]12CC[C@@H]3c4cc(F)c(O)cc4CC[C@H]3[C@@H]1CC[C@@]2(O)/C=C/I please.
0.54

Report ID/g for C[C@@H]1Cc2cc(O)c(F)cc2[C@H]2CC[C@@]3(C)[C@@H](CC[C@@]3(O)/C=C/I)[C@H]12 please.
0.31

Report ID/g for CO[C@H]1C[C@@]2(C)[C@@H](CC[C@@]2(O)/C=C\I)[C@@H]2CCc3c(ccc(O)c3F)[C@H]21 please.
0.77

Report ID/g for C[C@@H]1Cc2c(ccc(O)c2F)[C@H]2CC[C@@]3(C)[C@@H](CC[C@@]3(O)/C=C/I)[C@H]12 please.
0.97

====

Tested on: Rattus norvegicus
Experiment: Biodistribution in uterus of immature female rat after 3 hour administration of 3 micro Ci (111 kBq) in the absence of 60 microg estradiol
Assay type: ADME, organism-based
Conditions: in vivo
attribute_measured: ID/g
// return the numeric value with its unit appended

Report ID/g for C[C@@H]1Cc2c(ccc(O)c2F)[C@H]2CC[C@@]3(C)[C@@H](CC[C@@]3(O)/C=C\I)[C@H]12 please.
4.11%

Report ID/g for C[C@@H]1Cc2cc(O)c(F)cc2[C@H]2CC[C@@]3(C)[C@@H](CC[C@@]3(O)/C=C/I)[C@H]12 please.
0.85%

Report ID/g for CO[C@H]1C[C@@]2(C)[C@@H](CC[C@@]2(O)/C=C/I)[C@@H]2CCc3cc(O)c(F)cc3[C@H]21 please.
3.23%

Report ID/g for C[C@]12CC[C@@H]3c4cc(F)c(O)cc4CC[C@H]3[C@@H]1CC[C@@]2(O)/C=C\I please.
5.44%

Report ID/g for CO[C@H]1C[C@@]2(C)[C@@H](CC[C@@]2(O)/C=C\I)[C@@H]2CCc3c(ccc(O)c3F)[C@H]21 please.
7.48%

Report ID/g for C[C@@H]1Cc2cc(O)c(F)cc2[C@H]2CC[C@@]3(C)[C@@H](CC[C@@]3(O)/C=C\I)[C@H]12 please.
4.03%

Report ID/g for C[C@]12CC[C@@H]3c4ccc(O)c(F)c4CC[C@H]3[C@@H]1CC[C@@]2(O)/C=C/I please.
4.24%

====

System: Rattus norvegicus
Assay: Biodistribution in uterus of immature female rat after 3 hour administration of 3 micro Ci (111 kBq) in the absence of 60 microg estradiol
Format: ADME, organism-based
Conditions: in vivo
Would you kindly list ID/g for each of these compounds?

Report ID/g for C[C@@H]1Cc2c(ccc(O)c2F)[C@H]2CC[C@@]3(C)[C@@H](CC[C@@]3(O)/C=C/I)[C@H]12 please.
5.29%

Report ID/g for C[C@]12CC[C@@H]3c4ccc(O)c(F)c4CC[C@H]3[C@@H]1CC[C@@]2(O)/C=C\I please.
7.96%

Report ID/g for C[C@]12CC[C@@H]3c4cc(F)c(O)cc4CC[C@H]3[C@@H]1CC[C@@]2(O)/C=C/I please.
0.53%

====

System: Rattus norvegicus
Test: Biodistribution in thyroid of immature female rat after 12 hour administration of 3 micro Ci (111 kBq) in the absence of 60 microg estradiol
Assay type: ADME, organism-based, Thyroid gland
Conditions: in vivo
attribute_measured: ID/g (%)
Value expressed in %; do not type the unit.

Report ID/g for C[C@]12CC[C@@H]3c4cc(F)c(O)cc4CC[C@H]3[C@@H]1CC[C@@]2(O)/C=C\I please.
365

Report ID/g for CO[C@H]1C[C@@]2(C)[C@@H](CC[C@@]2(O)/C=C\I)[C@@H]2CCc3c(ccc(O)c3F)[C@H]21 please.
4651

Report ID/g for C[C@@H]1Cc2cc(O)c(F)cc2[C@H]2CC[C@@]3(C)[C@@H](CC[C@@]3(O)/C=C/I)[C@H]12 please.
446

Report ID/g for C[C@@H]1Cc2c(ccc(O)c2F)[C@H]2CC[C@@]3(C)[C@@H](CC[C@@]3(O)/C=C\I)[C@H]12 please.
898

Report ID/g for CO[C@H]1C[C@@]2(C)[C@@H](CC[C@@]2(O)/C=C/I)[C@@H]2CCc3cc(O)c(F)cc3[C@H]21 please.
571

Report ID/g for C[C@@H]1Cc2c(ccc(O)c2F)[C@H]2CC[C@@]3(C)[C@@H](CC[C@@]3(O)/C=C/I)[C@H]12 please.
217

Report ID/g for C[C@]12CC[C@@H]3c4ccc(O)c(F)c4CC[C@H]3[C@@H]1CC[C@@]2(O)/C=C/I please.
385

====

Would you kindly list uterus/blood ratio for each of these compounds?
Test system: Rattus norvegicus
Test: Biodistribution in uterus / blood of Immature Female rat after 1 hr administration of 3 micro Ci (111 kBq) in the absence of 60 microg estradiol
Type: ADME, organism-based
Conditions: in vivo
Just the number, please, no unit attached.

Report uterus/blood ratio for CO[C@H]1C[C@@]2(C)[C@@H](CC[C@@]2(O)/C=C\I)[C@@H]2CCc3cc(O)c(F)cc3[C@H]21 please.
15.7

Report uterus/blood ratio for CO[C@H]1C[C@@]2(C)[C@@H](CC[C@@]2(O)/C=C/I)[C@@H]2CCc3c(ccc(O)c3F)[C@H]21 please.
30.4

====

Would you kindly list ID/g for each of these molecules?
Test system: Rattus norvegicus
Assay: Biodistribution in muscle of immature female rat after 12 hour administration of 3 micro Ci (111 kBq) in the absence of 60 microg estradiol
Format: ADME, organism-based, Muscle tissue
Conditions: in vivo
Value expressed in %; do not type the unit.

Report ID/g for C[C@]12CC[C@@H]3c4cc(F)c(O)cc4CC[C@H]3[C@@H]1CC[C@@]2(O)/C=C/I please.
0.03

Report ID/g for C[C@@H]1Cc2cc(O)c(F)cc2[C@H]2CC[C@@]3(C)[C@@H](CC[C@@]3(O)/C=C\I)[C@H]12 please.
0.19

Report ID/g for C[C@@H]1Cc2cc(O)c(F)cc2[C@H]2CC[C@@]3(C)[C@@H](CC[C@@]3(O)/C=C/I)[C@H]12 please.
0.17

Report ID/g for CO[C@H]1C[C@@]2(C)[C@@H](CC[C@@]2(O)/C=C\I)[C@@H]2CCc3c(ccc(O)c3F)[C@H]21 please.
0.27

Report ID/g for CO[C@H]1C[C@@]2(C)[C@@H](CC[C@@]2(O)/C=C/I)[C@@H]2CCc3cc(O)c(F)cc3[C@H]21 please.
0.07

Report ID/g for C[C@]12CC[C@@H]3c4ccc(O)c(F)c4CC[C@H]3[C@@H]1CC[C@@]2(O)/C=C\I please.
0.37

====

Test system: Rattus norvegicus
Assay: Biodistribution in muscle of immature female rat after 12 hour administration of 3 micro Ci (111 kBq) in the absence of 60 microg estradiol
Type: ADME, organism-based, Muscle tissue
Settings: in vivo
Would you kindly list ID/g for each of these molecules?
// return the numeric value with its unit appended

Find ID/g (Rattus norvegicus) for the entry C[C@]12CC[C@@H]3c4cc(F)c(O)cc4CC[C@H]3[C@@H]1CC[C@@]2(O)/C=C\I
0.05%

Find ID/g (Rattus norvegicus) for the entry C[C@@H]1Cc2c(ccc(O)c2F)[C@H]2CC[C@@]3(C)[C@@H](CC[C@@]3(O)/C=C/I)[C@H]12
0.16%

Find ID/g (Rattus norvegicus) for the entry C[C@]12CC[C@@H]3c4ccc(O)c(F)c4CC[C@H]3[C@@H]1CC[C@@]2(O)/C=C/I
0.06%

Find ID/g (Rattus norvegicus) for the entry C[C@@H]1Cc2c(ccc(O)c2F)[C@H]2CC[C@@]3(C)[C@@H](CC[C@@]3(O)/C=C\I)[C@H]12
0.16%
